System: U2OS
Assay: Multiplex assay against U2OS
Type: toxicity, cell-based
Conditions: human, 24 h, 10 µM, compound concentration 10 uM
endpoint name: Population Normal (%)
Your answer is read as %, so omit the unit and give the number.

Known Population Normal (%) results, listed for orientation:
{"molecule": "Cc1c(C(=O)NCCCN(C)C)sc2ncnc(Nc3ccc(F)cc3OC(C)CF)c12 (centres undefined)", "scale unit": "%", "Population Normal (%)": 100}
{"molecule": "Cc1cc(NC(=O)NCCN2CCC(O)(Cc3ccccc3)CC2)c2ccccc2n1", "scale unit": "%", "Population Normal (%)": 96}
{"molecule": "CC(C)[C@H](C(=O)Nc1ccc(C(=O)NO)cc1)c1ccccc1", "scale unit": "%", "Population Normal (%)": 100}
{"molecule": "CC(C)(C)c1cc(C(C)(C)C)c(NC(=O)c2c[nH]c3ccccc3c2=O)cc1O", "scale unit": "%", "Population Normal (%)": 100}
{"molecule": "CCC(=N\\O)/C(C)=C/c1ccc(F)cc1", "scale unit": "%", "Population Normal (%)": 100}
{"molecule": "CN1[C@@H](CC(=O)c2ccccc2)CCC[C@H]1C[C@H](O)c1ccccc1.Cl [LOBELINE HYDROCHLORIDE]", "scale unit": "%", "Population Normal (%)": 100}

Query: Which measured Population Normal (%) value corresponds to Cl.Cl.OCCOCCN1CCN(C(c2ccccc2)c2ccc(Cl)cc2)CC1 (centres undefined) [HYDROXYZINE HYDROCHLORIDE] ?
Result: 97

Query: Which measured Population Normal (%) value corresponds to CCc1cc2cc(NS(=O)(=O)c3ccc(C#N)cc3)ccc2n(CC)c1=O ?
Result: 96

Query: Which measured Population Normal (%) value corresponds to COc1ccc(CC(=O)NC(N/C(=N/C#N)Nc2cccc3ncccc23)C(C)(C)C)cc1OC (centres undefined) ?
Result: 100

###

Measured Population Normal (%) by item
Test system: U2OS
Test: Multiplex assay against U2OS
Format: toxicity, cell-based
Settings: human, 12 h, 1 µM, compound concentration 1 uM
Your answer is read as %, so omit the unit and give the number.

Known Population Normal (%) results, listed for orientation:
{"compound": "CCn1c(-c2nonc2N)nc2c(C#CC(C)(C)O)ncc(OCC3CCCNC3)c21 (stereo not given)", "subject of test": "U2OS", "endpoint name": "Population Normal (%)", "scale unit": "%", "observed measurement": 100}
{"compound": "CCn1c(-c2ccncc2)cc2c1CCNC2=O", "subject of test": "U2OS", "endpoint name": "Population Normal (%)", "scale unit": "%", "observed measurement": 100}
{"compound": "CC(N)C1CCC(C(=O)Nc2ccncc2)CC1 (stereo not given)", "subject of test": "U2OS", "endpoint name": "Population Normal (%)", "scale unit": "%", "observed measurement": 100}
{"compound": "Cc1c(C(=O)NCCCN(C)C)sc2ncnc(Nc3ccc(F)cc3OC(C)CF)c12 (stereo not given)", "subject of test": "U2OS", "endpoint name": "Population Normal (%)", "scale unit": "%", "observed measurement": 100}
{"compound": "Cc1ccc(-c2c(C(=O)CF)n(CCCO)c3ncnc(N)c23)cc1", "subject of test": "U2OS", "endpoint name": "Population Normal (%)", "scale unit": "%", "observed measurement": 100}
{"compound": "CC(C)[C@H](C(=O)Nc1ccc(C(=O)NO)cc1)c1ccccc1 [AR-42]", "subject of test": "U2OS", "endpoint name": "Population Normal (%)", "scale unit": "%", "observed measurement": 100}
{"compound": "CCCCCN1C(=O)C2(COc3cc4c(cc32)OCO4)c2ccccc21 (stereo not given)", "subject of test": "U2OS", "endpoint name": "Population Normal (%)", "scale unit": "%", "observed measurement": 100}
{"compound": "COC(c1ccccc1)(c1ccccc1)[C@H](Oc1nc(C)cc(C)n1)C(=O)O [AMBRISENTAN]", "subject of test": "U2OS", "endpoint name": "Population Normal (%)", "scale unit": "%", "observed measurement": 97}
{"compound": "Cc1ccccc1C(=O)Nc1ccc(C(=O)N2CCCC(N(C)C)c3ccccc32)cc1.Cl (stereo not given)", "subject of test": "U2OS", "endpoint name": "Population Normal (%)", "scale unit": "%", "observed measurement": 98}

Kindly consider the entry below.
Query: Which measured Population Normal (%) value corresponds to NC1=NC(=O)/C(=C2\CCNC(=O)c3[nH]c4ccccc4c32)N1 ?
Result: 100
